# target or system: T1, human CD19 antigen (human, UniProt P15391 20-291, limits assumed)
# T1 sequence (looked up): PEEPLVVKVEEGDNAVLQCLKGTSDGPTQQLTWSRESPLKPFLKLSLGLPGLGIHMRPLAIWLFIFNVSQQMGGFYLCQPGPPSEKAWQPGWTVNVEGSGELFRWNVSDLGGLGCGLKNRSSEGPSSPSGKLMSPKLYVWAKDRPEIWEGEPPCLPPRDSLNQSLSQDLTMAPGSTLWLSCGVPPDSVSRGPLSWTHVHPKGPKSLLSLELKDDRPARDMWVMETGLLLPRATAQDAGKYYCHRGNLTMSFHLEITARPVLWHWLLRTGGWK
# protocol: SPR (Biacore), antibody captured via Fc
koff strictly under 0.0004 s⁻¹ means condition met; at 0.0004 s⁻¹ or over means condition not met.

Please review the entries below; each comes with its answer.
humanized CD19 antibody VH4 + VL6 (antibody, V domains shown) VH: QVQLQESGPGLVKPSQTLSLTCTVSGVSLPDYGVSWIRQPPGKGLEWLGVIWGSETTYYNSALKSRLTISKDTSKNQVSLKLSSVTAADTAVYYCAKHYYYGGSYAMDYWGQGTTVTVSS VL: DIQMTQSPSSLSASVGDRVTITCRASQDISKYLNWYQQKPGGAVKLLIYHTSRLHSGVPSRFSGSGSGTDYTFTISSLQPEDIATYFCQQGNTLPYTFGGGTKLEIK | condition not met
humanized CD19 antibody VH2 + VL6 (antibody, V domains shown) VH: QVQLQESGPGLVKPSQTLSLTCTVSGVSLPDYGVSWIRQPPGKGLEWIGVIWGSETTYYNSALKSRVTISKDTSKNQVSLKLSSVTAADTAVYYCAKHYYYGGSYAMDYWGQGTTVTVSS VL: DIQMTQSPSSLSASVGDRVTITCRASQDISKYLNWYQQKPGGAVKLLIYHTSRLHSGVPSRFSGSGSGTDYTFTISSLQPEDIATYFCQQGNTLPYTFGGGTKLEIK | condition not met
humanized CD19 antibody VH8 + VL6 (antibody, V domains shown) VH: QVKLQESGPGLVKPSETLSLTCTVSGVSLPDYGVSWIRQPPGKGLEWIGVIWGSETTYYNSALKSRVTISKDTSKSQVFLKLSSVTAADTAVYYCAKHYYYGGSYAMDYWGQGTLVTVSS VL: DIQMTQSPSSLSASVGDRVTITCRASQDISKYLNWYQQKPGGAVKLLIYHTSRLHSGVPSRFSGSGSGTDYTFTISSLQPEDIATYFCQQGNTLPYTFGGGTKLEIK | condition met
humanized CD19 antibody VH9 + VL5 (antibody, V domains shown, also called H9L5) VH: QVQLQESGPGLVKPSETLSLTCTVSGVSLPDYGVSWIRQPPGKGLEWLGVIWGSETTYYNSALKSRLTISKDTSKSQVSLKLSSVTAADTAVYYCAKHYYYGGSYAMDYWGQGTLVTVSS VL: DIQMTQSPSSLSASVGDRVTISCRASQDISKYLNWYQQKPGKAPKLLIYHTSRLHSGVPSRFSGSGSGTDYTFTISSLQPEDIATYFCQQGNTLPYTFGGGTKLEIK | condition met

Now consider a different binder.
Input humanized CD19 antibody VH2 + VL7 (antibody, V domains shown) VH: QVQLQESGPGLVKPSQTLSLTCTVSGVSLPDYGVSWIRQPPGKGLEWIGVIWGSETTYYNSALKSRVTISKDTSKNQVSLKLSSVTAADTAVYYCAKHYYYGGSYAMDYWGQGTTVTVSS VL: DIQMTQSPSSLSASVGDRVTISCRASQDISKYLNWYQQKPDGTVKLLIYHTSRLHSGVPSRFSGSGSGTDFTFTISSLQPEDIATYFCQQGNTLPYTFGGGTKLEIK ; condition: koff strictly below 0.0004 s⁻¹. Does it hold?
condition not met
